# system.tested: Ga14-DBD-PPAR gamma-LBD fusion protein (Homo sapiens, UniProt P37231)
# Construct: expressed in transfected cells; host or cells: mouse embryonic fibroblasts (MEFs) or ME3 cells
# Sequence (P37231 238-503 limits assumed): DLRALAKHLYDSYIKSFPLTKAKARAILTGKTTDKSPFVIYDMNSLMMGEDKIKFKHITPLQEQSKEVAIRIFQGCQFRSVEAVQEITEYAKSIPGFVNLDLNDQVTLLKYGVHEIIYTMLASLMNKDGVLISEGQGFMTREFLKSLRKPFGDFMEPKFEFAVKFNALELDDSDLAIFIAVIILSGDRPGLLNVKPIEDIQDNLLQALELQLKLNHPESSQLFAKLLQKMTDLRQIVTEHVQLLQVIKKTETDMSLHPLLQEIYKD
# procedure.details: PPAR gamma transactivation assay (Gal4-PPAR gamma LBD / UASx4-TK-luc reporter)
# Format: cell-based
# cond: Experiment 1, 10 microM
recorded.endpoint: PPAR Activation as % of positive control (Avandia)

These solved cases illustrate the format of a correct answer.
CCCCC/C=C\CC1CC1/C=C/C(O)C/C=C\CCCC(=O)OC (centres unmarked) :: 55 +/− 8 % of positive control (Avandia)
CCCCC/C=C\CC1CC1C(O)/C=C\C/C=C\CCCC(=O)OC (centres unmarked) [PBT-4, reference compound] :: 60 +/− 9 % of positive control (Avandia)

Would you kindly look at the next entry?
*Q* Value lookup for PPAR Activation as % of positive control (Avandia); key = CCCCC/C=C\CC1CC1C(O)/C=C\C/C=C\CCCC(=O)OC (centres unmarked) [Compound C]
*A* 38 +/− 8 % of positive control (Avandia)
